target: T1, human PD-L1 antigen (Beijing Sino Biological Inc, Catalog No. #10084-H08H-100) (human, UniProt Q9NZQ7 19-239); experiment: BLI (ForteBIO Octet), antibody captured on sensor, human PD-L1 in solution
T1 construct: Bought antigen; also called the antigen
T1 sequence (Q9NZQ7 19-239 limits assumed): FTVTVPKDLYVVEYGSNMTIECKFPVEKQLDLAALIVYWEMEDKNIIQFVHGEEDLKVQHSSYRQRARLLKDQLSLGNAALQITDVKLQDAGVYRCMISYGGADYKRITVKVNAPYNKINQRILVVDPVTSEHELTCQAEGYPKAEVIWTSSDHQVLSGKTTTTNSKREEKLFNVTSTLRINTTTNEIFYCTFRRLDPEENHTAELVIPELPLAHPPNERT
measured.endpoint: pKd
Numbers only, as −log10 of the molar value.

Study these solved cases before continuing.
So, Antibody II-HX-10 (antibody, human IgG4 S228P, kappa, V domains shown) VH: VQLVQSGAEVKKPGASVKVSCKASGYSTSSFVMHWVRQAPGQGLEWMGYINYYNDATKYNEKFKGRVTITSDKSASTAYMELSSLRSEDTAVYYCAWSGAIFEYWGQGTLVTVSS VL: TQSPSFLSASVGDRVTITCSASSSVSYMHWFQQKPGKSPKLWIYSYSNLASGVPARFSGSGSGTSYSLTISSLQPEDFATYYCQNRTSFHYTFGQGTKLEIKR ? Its pKd was 8.44

Short answer for Antibody II-HX-16 (antibody, human IgG4 S228P, kappa, V domains shown) VH: VQLVQSGAEVKKPGASVKVSCKASGYFYTSYVMHWVRQAPGQGLEWMGYINPFQDITKYNEKFKGRVTITSDKSASTAYMELSSLRSEDTAVYYCAWSAALSEYWGQGTLVTVSS VL: TQSPSFLSASVGDRVTITCSASSSVSYMHWFQQKPGKSPKLWIYSTSNLASGVPARFSGSGSGTSYSLTISSLQPEDFATYYCQNRYSYPYTFGQGTKLEIKR : pKd was 8.43

Pending binder:
Notebook: Antibody II-HX-13 (antibody, human IgG4 S228P, kappa, V domains shown) VH: VQLVQSGAEVKKPGASVKVSCKASGYSFTSYVMHWVRQAPGQGLEWMGYINPYNDGTKYNEKFKGRVTITSDKSASTAYMELSSLRSEDTAVYYCARSIGITDYWGQGTLVTVSS VL: TQSPSFLSASVGDRVTITCSASSSISYMHWFQQKPGKSPKLWIYSTSNLASGVPARFSGSGSGTSYSLTISSLQPEDFATYYCQQRSSFPYTFGQGTKLEIKR , pKd read as 9.15
